- MEASUREMENT_DESCRIPTION: Relative inhibition index was the ratio between AK-M and AK III
- Type: functional
I'd be grateful if you could share measured Relative inhibition index for these entries.
Just the number, please, no unit attached.

Requested field: Relative inhibition index. Item: `CO[C@H]1[C@@H](O)[C@H](n2cnc3c(N)ncnc32)O[C@@H]1COP(=O)(O)O`
2.6

Next compound: CC1O[C@@H]2[C@H](O1)[C@@H](COP(=O)(O)O)O[C@H]2n1cnc2c(N)ncnc21 (stereo partly drawn)
4.6

Next compound: `Nc1ncnc2c1ncn2[C@@H]1O[C@H](/C=C/P(=O)(O)O)[C@@H](O)[C@H]1O`
5.1
